system-name: human NTCP (Homo sapiens, UniProt Q14973)
Sequence (Q14973 1-349): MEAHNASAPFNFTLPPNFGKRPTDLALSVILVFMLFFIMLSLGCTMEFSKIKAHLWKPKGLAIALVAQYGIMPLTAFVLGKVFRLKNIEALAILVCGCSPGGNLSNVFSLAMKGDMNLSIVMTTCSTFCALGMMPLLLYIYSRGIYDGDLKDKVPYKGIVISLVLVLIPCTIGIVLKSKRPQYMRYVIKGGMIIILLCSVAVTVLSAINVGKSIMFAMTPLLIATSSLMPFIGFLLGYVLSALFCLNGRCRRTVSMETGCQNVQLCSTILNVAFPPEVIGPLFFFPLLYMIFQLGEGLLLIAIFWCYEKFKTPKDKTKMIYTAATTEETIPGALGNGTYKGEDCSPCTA
test-summary: Screening taurocholate uptake assay (96-well, [14C]taurocholate, 10 µM drug)
particulars: Prestwick library screen, taurocholate uptake, 10 µM drug
Structures can show the parent of a compound that is named as a salt.
measure: B-score functional assay
Numbers only.

// solved cases for B-score functional assay follow
May I ask what B-score functional assay has been recorded for CC/C(=C(\c1ccccc1)c1ccc(OCCN(C)C)cc1)c1ccccc1 [Tamoxifen citrate] ? 0.142

Entry CCN(CCO)CCCC(C)Nc1ccnc2cc(Cl)ccc12 (centres unmarked) [Hydroxychloroquine sulfate] : reported B-score functional assay = ? 0.168

So what's the measured B-score functional assay for this one? Cn1c(=O)c2c(ncn2C)n(C)c1=O 0.363

Consider the molecule CCn1cc(C(=O)O)c(=O)c2cc(F)c(N3CCNC(C)C3)c(F)c21 (centres unmarked) [Lomefloxacin hydrochloride] and give its measured B-score functional assay. 0.226

Need B-score functional assay of CCOc1ccccc1OC(c1ccccc1)C1CNCCO1.CS(=O)(=O)O (centres unmarked) [Reboxetine mesylate] , thanks. 1.175

# return B-score functional assay for each item in the list
1. Nc1ccn([C@@H]2O[C@H](CO)[C@@H](O)C2(F)F)c(=O)n1
2. CCOC(=O)[C@H](CCc1ccccc1)N[C@@H](C)C(=O)N1CCC[C@H]1C(=O)O [Enalapril maleate]
3. O=c1[nH]c(=O)n([C@H]2C[C@H](O)[C@@H](CO)O2)cc1F

0.015
0.08
0.659
